Property: EC50; scope: individual binders
Biological target: T1, Recombinant cyno-CD40 protein (Acro Biosystems) (cynomolgus monkey (Macaca fascicularis), UniProt G7PG38 21-193)
T1 construct: also called cynomolgus monkey-CD40 protein; recombinant cynomolgus monkey CD40 recombinant protein
Assay: ELISA on coated recombinant cynomolgus monkey CD40
Number first, unit second.

{"columns": ["binder", "EC50"],
 "data": [
  ["MAB-16-0406 (antibody, V domains shown, humanized anti-CD40 IgG1-LALA antibody of the invention) VH: EVQLEESGGGLVQPGGSLRLSCAASGIDFSRYYYMCWVRQAPGKGPEWVACYSNGDGSTYYASWAKGRFTISKDTSKTTLYLQMNSLRAEDTATYFCARGADYSAGAAAFNLWGQGTLVTVSS VL: DIQMTQSPSSLSASVGDRVTITCQASESIGNALVWYQQKPGQAPKLLIYRASILASGVPSRFSGSGSGTDFTLTISSLQPEDFATYYCQDYYGSSTEYNTFGQGTKVVIK", "0.0111 µg/mL"]
]}

*Q* Suppose we examine the binder MAB-16-0484 (antibody, V domains shown, humanized anti-CD40 IgG1-LALA antibody of the invention) VH: EVQLEESGGGLVQPGGSLRLSCAASGIDFSRYYYICWVRQAPGKGPEWVACFANGDGSTYYASWAKGRFTISKDTSKTTLYLQMNSLRAEDTATYFCARGADYSGGAAAFNLWGQGTLVTVSS VL: DIQMTQSPSSLSASVGDRVTITCQASQSISSRLAWYQQKPGQAPKLLIYRASTLASGVPSRFSGSGSGTDFTLTISSLQPEDFATYYCQDYYGSSTEYNAFGQGTKVVIK ; what EC50 value has been reported?
*A* 0.0318 µg/mL
